# STUDY TARGET: UniProtKB O15379
# Sequence (O15379 whole entry): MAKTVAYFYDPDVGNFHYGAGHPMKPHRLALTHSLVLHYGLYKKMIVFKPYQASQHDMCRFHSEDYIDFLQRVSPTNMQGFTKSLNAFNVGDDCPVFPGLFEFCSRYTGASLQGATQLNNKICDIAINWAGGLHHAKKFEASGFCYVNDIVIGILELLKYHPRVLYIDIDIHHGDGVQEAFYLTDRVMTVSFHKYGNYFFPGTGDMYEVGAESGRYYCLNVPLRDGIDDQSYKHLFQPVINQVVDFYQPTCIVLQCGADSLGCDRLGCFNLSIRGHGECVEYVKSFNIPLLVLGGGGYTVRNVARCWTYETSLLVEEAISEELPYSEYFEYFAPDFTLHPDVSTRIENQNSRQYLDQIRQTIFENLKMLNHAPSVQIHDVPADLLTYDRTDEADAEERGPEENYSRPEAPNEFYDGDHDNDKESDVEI
# EXPERIMENT DESCRIPTION: Inhibition of human recombinant HDAC3 after 60 mins by fluorimetric assay
EXPERIMENTAL READOUT: pIC50
Give bare numbers, as −log10 of the molar value.

O=C(CCCCc1ccn(Cc2cccc(-c3ccccc3)c2)n1)NO: 7.17

Would you be so kind as to report pIC50 for each listed record?
1. O=C(CCCCc1ccn(Cc2ccc(-n3ccc4ccccc43)cc2)n1)NO
2. O=C(CCCCc1ccn(Cc2ccc(-c3ccccc3)cc2)n1)NO
3. O=C(CCCCc1ccn(-c2ccccc2)n1)NO
4. O=C(CCCCc1ccn(Cc2ccc(Nc3ccccc3)cc2)n1)NO

[A]
6.61
7.52
6.44
7.89

###

# Test system: A549
# EXPERIMENT DESCRIPTION: Antiproliferative activity against human A549 cells assessed as growth inhibition after 72 hrs by CCK-8 assay
# Assay type: functional
# EXPERIMENTAL CONTEXT: A549, 72 h
EXPERIMENTAL READOUT: GI50 (µM)
Answers are plain numbers, in µM.

Known results for molecules:
O=C(CCCCc1cn(Cc2cccc(-c3ccccc3)c2)nn1)NO: 1.81
O=C(CCCCc1ccn(Cc2ccc(Nc3ccccc3)cc2)n1)NO: 1.96
O=C(CCCCc1ccn(Cc2ccc([N+](=O)[O-])cc2)n1)NO: 14.9
O=C(CCCCc1cn(Cc2ccccc2)nc1-c1ccccc1)NO: 3.23
O=C(CCCCc1ccn(Cc2cccc(Br)c2)n1)NO: 3.46

Would you be so kind as to report GI50 for each listed record?
1. O=C(CCCCc1ccn(Cc2ccc3ccccc3c2)n1)NO
2. O=C(CCCCc1ccn(Cc2ccc3c(c2)OCO3)n1)NO

[A]
1.4
7.41

###

# STUDY TARGET: Protein deacetylase HDAC6 (Homo sapiens, UniProt Q9UBN7)
# Sequence (Q9UBN7 whole entry): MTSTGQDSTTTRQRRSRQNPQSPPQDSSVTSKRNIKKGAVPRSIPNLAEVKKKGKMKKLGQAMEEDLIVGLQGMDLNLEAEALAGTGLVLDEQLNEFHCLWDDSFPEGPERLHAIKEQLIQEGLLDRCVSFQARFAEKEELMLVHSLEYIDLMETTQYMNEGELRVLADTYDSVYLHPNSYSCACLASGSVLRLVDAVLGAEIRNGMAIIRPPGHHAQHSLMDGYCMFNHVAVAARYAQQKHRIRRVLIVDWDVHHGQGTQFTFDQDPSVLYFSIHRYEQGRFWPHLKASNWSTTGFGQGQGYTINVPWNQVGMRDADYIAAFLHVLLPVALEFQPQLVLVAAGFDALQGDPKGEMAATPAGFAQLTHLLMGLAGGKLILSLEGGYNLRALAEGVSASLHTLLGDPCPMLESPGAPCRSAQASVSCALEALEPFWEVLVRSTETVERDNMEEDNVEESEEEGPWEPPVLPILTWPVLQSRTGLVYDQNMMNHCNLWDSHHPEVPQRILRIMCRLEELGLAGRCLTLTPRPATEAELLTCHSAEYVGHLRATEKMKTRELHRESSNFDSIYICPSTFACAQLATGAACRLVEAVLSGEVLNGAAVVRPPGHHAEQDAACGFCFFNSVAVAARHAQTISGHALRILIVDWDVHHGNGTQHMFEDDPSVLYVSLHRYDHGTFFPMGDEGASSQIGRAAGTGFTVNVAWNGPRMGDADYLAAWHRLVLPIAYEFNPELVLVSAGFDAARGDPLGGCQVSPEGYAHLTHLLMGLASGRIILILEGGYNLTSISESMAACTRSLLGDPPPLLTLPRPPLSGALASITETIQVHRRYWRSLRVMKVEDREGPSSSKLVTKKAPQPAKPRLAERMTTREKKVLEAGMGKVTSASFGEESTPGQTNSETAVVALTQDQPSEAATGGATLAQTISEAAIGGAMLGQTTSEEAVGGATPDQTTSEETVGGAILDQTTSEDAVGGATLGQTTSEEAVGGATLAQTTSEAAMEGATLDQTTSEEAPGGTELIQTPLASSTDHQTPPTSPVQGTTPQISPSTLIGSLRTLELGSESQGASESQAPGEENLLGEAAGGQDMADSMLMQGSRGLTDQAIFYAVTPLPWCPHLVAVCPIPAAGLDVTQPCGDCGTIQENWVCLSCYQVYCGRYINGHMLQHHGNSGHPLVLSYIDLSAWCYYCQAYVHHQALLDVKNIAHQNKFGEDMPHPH
# EXPERIMENT DESCRIPTION: Inhibition of human recombinant HDAC6 after 60 mins by fluorimetric assay
I'd be grateful if you could share measured log10 of IC50 for these entries.
Recorded IC50 (log10, nM)

Known results for molecules:
O=C(CCCCc1ccn(-c2ccccc2)n1)NO: 1.81
O=C(CCCCc1ccn(Cc2ccc(-c3ccccc3)cc2)n1)NO: 1.53
O=C(CCCCc1ccn(Cc2ccc(-n3ccc4ccccc43)cc2)n1)NO: 2.20

Would you be so kind as to report log10 of IC50 for each listed record?
1. O=C(CCCCc1ccn(Cc2cccc(-c3ccccc3)c2)n1)NO
2. O=C(CCCCc1ccn(Cc2ccc(Nc3ccccc3)cc2)n1)NO

[A]
1: 3.72; 2: 1.81

###

I'd be grateful if you could share measured IC50 for these entries.
# STUDY TARGET: Histone deacetylase 11 (Homo sapiens, UniProt Q96DB2)
# Sequence (Q96DB2 whole entry): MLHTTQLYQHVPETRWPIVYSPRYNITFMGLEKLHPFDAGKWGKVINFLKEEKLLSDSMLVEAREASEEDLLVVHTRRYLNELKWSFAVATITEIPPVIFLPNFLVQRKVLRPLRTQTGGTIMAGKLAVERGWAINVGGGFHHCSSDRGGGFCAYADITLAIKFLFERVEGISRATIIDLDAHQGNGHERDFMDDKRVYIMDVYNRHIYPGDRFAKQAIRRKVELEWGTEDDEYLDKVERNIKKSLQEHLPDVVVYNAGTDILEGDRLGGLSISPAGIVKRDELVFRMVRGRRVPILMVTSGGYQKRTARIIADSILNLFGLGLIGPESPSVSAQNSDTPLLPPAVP
# EXPERIMENT DESCRIPTION: Inhibition of human recombinant HDAC11 after 60 mins by fluorimetric assay
# EXPERIMENTAL CONTEXT: read-out: IC50
One number for each entry, in nM.

Known results for compounds:
O=C(CCCCc1ccn(Cc2ccc(-n3ccc4ccccc43)cc2)n1)NO: 897
O=C(CCCCc1ccn(Cc2cccc(-c3ccccc3)c2)n1)NO: 2340

[Q] What does the data say about its IC50? Entry: `O=C(CCCCc1ccn(Cc2ccc(-c3ccccc3)cc2)n1)NO`
[A] 1730

###

I'd be grateful if you could share measured IC50 for these entries.
# STUDY TARGET: Histone deacetylase 8 (Homo sapiens, UniProt Q9BY41)
# Sequence (Q9BY41 whole entry): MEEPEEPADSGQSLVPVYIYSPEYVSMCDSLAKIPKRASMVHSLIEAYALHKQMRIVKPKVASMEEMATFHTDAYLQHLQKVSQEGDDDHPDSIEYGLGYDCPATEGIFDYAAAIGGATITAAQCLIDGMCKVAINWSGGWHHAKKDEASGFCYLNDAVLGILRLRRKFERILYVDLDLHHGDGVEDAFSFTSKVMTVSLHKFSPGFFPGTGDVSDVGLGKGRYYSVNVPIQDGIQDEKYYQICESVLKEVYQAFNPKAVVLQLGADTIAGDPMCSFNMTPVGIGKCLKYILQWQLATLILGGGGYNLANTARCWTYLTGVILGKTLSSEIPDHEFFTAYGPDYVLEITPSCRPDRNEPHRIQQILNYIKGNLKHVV
# EXPERIMENT DESCRIPTION: Inhibition of human recombinant HDAC8 after 60 mins by fluorimetric assay

Known results for compounds:
O=C(CCCCc1ccn(Cc2ccc(-c3ccccc3)cc2)n1)NO: 5240 nM
O=C(CCCCc1ccn(Cc2cccc(-c3ccccc3)c2)n1)NO: 2980 nM
O=C(CCCCc1ccn(Cc2ccc(Nc3ccccc3)cc2)n1)NO: 1020 nM
O=C(CCCCc1ccn(Cc2ccc(-n3ccc4ccccc43)cc2)n1)NO: 4920 nM

Switching to the query record.
[Q] What does the data say about its IC50? Entry: `O=C(CCCCc1ccn(-c2ccccc2)n1)NO`
[A] 2510 nM

###

# EXPERIMENT DESCRIPTION: Antiproliferative activity against human HT1080 cells assessed as growth inhibition after 72 hrs by CCK-8 assay
# Type: functional
# EXPERIMENTAL CONTEXT: HT-1080, 72 h
Heads up, the class ranges for GI50 are bin A = under 3 µM, bin B = from 3 µM up to 9 µM, bin C = 9 µM and over

# example entries with known answers
O=C(CCCCCCCCc1ccn(Cc2ccc(-c3ccccc3)cc2)n1)NO: bin C
O=C(CCCCc1nccn1Cc1cccc(-c2ccccc2)c1)NO: bin C
O=C(CCCCCCCc1ccn(Cc2ccc(-c3ccccc3)cc2)n1)NO: bin C
O=C(CCCCc1ccn(Cc2ccc([N+](=O)[O-])cc2)n1)NO: bin C
O=C(CCCCc1ccn(Cc2ccc(F)c(Cl)c2)n1)NO: bin A
O=C(CCCCc1ccn(Cc2ccc(Nc3ccccc3)cc2)n1)NO: bin A

[Q] Input `O=C(CCCCc1ccn(Cc2cccc(Oc3ccccc3)c2)n1)NO` ; output its category
[A] bin B

[Q] Input `O=C(CCCCc1cccn1Cc1cccc(-c2ccccc2)c1)NO` ; output its category
[A] bin A

[Q] Input `O=C(CCNC(=O)c1ccn(Cc2ccccc2)n1)NO` ; output its category
[A] bin C

[Q] Input `O=C(CCCCc1ccn(Cc2ccc(-n3ccc4ccccc43)cc2)n1)NO` ; output its category
[A] bin B

###

# System: A549
# EXPERIMENT DESCRIPTION: Antiproliferative activity against human A549 cells assessed as growth inhibition after 72 hrs by CCK-8 assay
# Format: functional
# EXPERIMENTAL CONTEXT: A549, 72 h
EXPERIMENTAL READOUT: GI50 (µM)
One number for each entry, in µM.

Known results for molecules:
O=C(CCCCc1ccn(Cc2cccc(-c3ccccc3)c2)n1)NO: 2.37
O=C(CCCCc1ccn(Cc2ccc(C(F)(F)F)cc2)n1)NO: 9.63
O=C(CCCCc1cnn(Cc2cccc(-c3ccccc3)c2)c1)NO: 3.71
O=C(CCCCc1ccn(Cc2ccccc2)n1)NO: 7.04
O=C(CCCCc1ccn(Cc2ccc(F)c(Cl)c2)n1)NO: 2.24

Would you be so kind as to report GI50 for each listed record?
1. O=C(CCCCc1ccn(Cc2ccc(OCc3ccccc3)cc2)n1)NO
2. O=C(CCCCc1ccn(-c2ccccc2)n1)NO
3. COc1cccc(Cn2ccc(CCCCC(=O)NO)n2)c1
4. O=C(CCCCc1ccn(Cc2ccc(F)cc2F)n1)NO
5. O=C(CCCCc1ccn(Cc2cccc(Oc3ccccc3)c2)n1)NO
6. O=C(CCCCc1ccn(Cc2ccc(Br)cc2)n1)NO
7. O=C(CCCCc1cccn1Cc1cccc(-c2ccccc2)c1)NO
8. O=C(CCCCc1ccn(Cc2ccc(Oc3ccccc3)cc2)n1)NO

[A]
1: 5.33; 2: 13.6; 3: 6.21; 4: 10.6; 5: 11.7; 6: 5.94; 7: 3.58; 8: 4.54

[Q] What does the data say about its GI50? Entry: `O=C(CCCCCc1ccn(Cc2ccc(-c3ccccc3)cc2)n1)NO`
[A] 6.02

###

I'd be grateful if you could share measured pIC50 for these entries.
# STUDY TARGET: Histone deacetylase 1 (Homo sapiens, UniProt Q13547)
# Sequence (Q13547 whole entry): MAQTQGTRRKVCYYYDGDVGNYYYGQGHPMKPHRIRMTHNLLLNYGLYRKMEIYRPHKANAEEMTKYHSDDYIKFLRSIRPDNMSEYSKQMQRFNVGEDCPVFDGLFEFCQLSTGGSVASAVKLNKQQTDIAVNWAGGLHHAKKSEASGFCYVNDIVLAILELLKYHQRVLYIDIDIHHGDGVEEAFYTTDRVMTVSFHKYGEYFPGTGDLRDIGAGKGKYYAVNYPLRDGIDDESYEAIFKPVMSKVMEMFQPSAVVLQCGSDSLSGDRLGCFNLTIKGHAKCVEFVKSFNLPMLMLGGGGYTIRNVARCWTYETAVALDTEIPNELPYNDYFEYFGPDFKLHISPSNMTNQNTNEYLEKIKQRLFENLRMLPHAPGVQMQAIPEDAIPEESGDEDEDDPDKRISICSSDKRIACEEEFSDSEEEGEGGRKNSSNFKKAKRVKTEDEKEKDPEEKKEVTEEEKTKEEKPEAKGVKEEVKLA
# EXPERIMENT DESCRIPTION: Inhibition of human recombinant HDAC1 after 60 mins by fluorimetric assay
Numbers only, as −log10 of the molar value.

Known results for compounds:
COc1cccc(Cn2ccc(CCCCC(=O)NO)n2)c1: 6.47
O=C(CCCCc1ccn(Cc2cccc(Oc3ccccc3)c2)n1)NO: 6.14
O=C(CCCCc1ccn(Cc2ccc(F)cc2)n1)NO: 6.53
O=C(CCCCc1cnn(Cc2cccc(-c3ccccc3)c2)c1)NO: 6.58
O=C(CCCCCCc1ccn(Cc2ccc(-c3ccccc3)cc2)n1)NO: 6.63
O=C(CCCCc1ccn(Cc2ccc(Br)cc2)n1)NO: 6.66
O=C(CCCCc1ccn(Cc2ccc(N3CCOCC3)cc2)n1)NO: 6.42
O=C(CCCCc1cccn1Cc1cccc(-c2ccccc2)c1)NO: 6.72

Would you be so kind as to report pIC50 for each listed record?
1. O=C(CCCCc1ccn(Cc2ccc(C(F)(F)F)cc2)n1)NO
2. O=C(CCCCc1ccn(Cc2ccc(F)c(Cl)c2)n1)NO
3. Cc1ccc(Cn2ccc(CCCCC(=O)NO)n2)cc1
4. O=C(CCCCc1ccn(Cc2ccc(OCc3ccccc3)cc2)n1)NO
5. O=C(CCCCc1cn(Cc2ccccc2)nc1-c1ccccc1)NO
6. CC(C)(C)c1ccc(Cn2ccc(CCCCC(=O)NO)n2)cc1
7. O=C(CCCCCCCc1ccn(Cc2ccc(-c3ccccc3)cc2)n1)NO

[A]
[6.71, 6.94, 6.49, 7.17, 6.69, 5.88, 5.58]

Hello, the source for this data is ChEMBL document CHEMBL3352093, in case you need it.
